protocol_conditions: in acetonitrile, 318.15 K
readout_kind: solubility (mole fraction)

compound_structure_string=CC(C)C[C@H](CN)CC(=O)O readout_kind="solubility (mole fraction)" quantitative_result=0.00106

---

protocol_conditions: in isobutanol, 323.15 K
readout_kind: solubility (mole fraction)

compound_structure_string=CC(C)C[C@H](CN)CC(=O)O readout_kind="solubility (mole fraction)" quantitative_result=0.00219

---

protocol_conditions: in ethanol, 318.15 K
readout_kind: solubility (mole fraction)

compound_structure_string=CC(C)C[C@H](CN)CC(=O)O readout_kind="solubility (mole fraction)" quantitative_result=0.00501

---

protocol_conditions: in acetonitrile, 283.15 K
readout_kind: solubility (mole fraction)

compound_structure_string=CC(C)C[C@H](CN)CC(=O)O quantitative_result=0.000624

---

protocol_conditions: in n-butanol, 323.15 K
readout_kind: solubility (mole fraction)

compound_structure_string=CC(C)C[C@H](CN)CC(=O)O quantitative_result=0.00677

---

protocol_conditions: in methanol, 323.15 K
readout_kind: solubility (mole fraction)

compound_structure_string=CC(C)C[C@H](CN)CC(=O)O readout_kind="solubility (mole fraction)" quantitative_result=0.00602

---

protocol_conditions: in isobutanol, 318.15 K
readout_kind: solubility (mole fraction)

compound_structure_string=CC(C)C[C@H](CN)CC(=O)O readout_kind="solubility (mole fraction)" quantitative_result=0.00209

---

protocol_conditions: in n-butanol, 288.15 K
readout_kind: solubility (mole fraction)

compound_structure_string=CC(C)C[C@H](CN)CC(=O)O readout_kind="solubility (mole fraction)" quantitative_result=0.00213

---

protocol_conditions: in n-propanol, 293.15 K
readout_kind: solubility (mole fraction)

compound_structure_string=CC(C)C[C@H](CN)CC(=O)O quantitative_result=0.00241

---

protocol_conditions: in ethyl acetate, 318.15 K
readout_kind: solubility (mole fraction)

compound_structure_string=CC(C)C[C@H](CN)CC(=O)O quantitative_result=0.00547

---

protocol_conditions: in n-butanol, 313.15 K
readout_kind: solubility (mole fraction)

compound_structure_string=CC(C)C[C@H](CN)CC(=O)O readout_kind="solubility (mole fraction)" quantitative_result=0.00551

---

protocol_conditions: in isopropanol, 328.15 K
readout_kind: solubility (mole fraction)

compound_structure_string=CC(C)C[C@H](CN)CC(=O)O readout_kind="solubility (mole fraction)" quantitative_result=0.000513

---

protocol_conditions: in n-propanol, 323.15 K
readout_kind: solubility (mole fraction)

compound_structure_string=CC(C)C[C@H](CN)CC(=O)O readout_kind="solubility (mole fraction)" result=0.00501

---

protocol_conditions: in acetonitrile, 333.15 K
readout_kind: solubility (mole fraction)

compound_structure_string=CC(C)C[C@H](CN)CC(=O)O readout_kind="solubility (mole fraction)" quantitative_result=0.00123

---

protocol_conditions: in isobutanol, 313.15 K
readout_kind: solubility (mole fraction)

compound_structure_string=CC(C)C[C@H](CN)CC(=O)O quantitative_result=0.002

---

protocol_conditions: in isobutanol, 288.15 K
readout_kind: solubility (mole fraction)

compound_structure_string=CC(C)C[C@H](CN)CC(=O)O readout_kind="solubility (mole fraction)" quantitative_result=0.00146

---

protocol_conditions: in ethyl acetate, 283.15 K
readout_kind: solubility (mole fraction)

compound_structure_string=CC(C)C[C@H](CN)CC(=O)O readout_kind="solubility (mole fraction)" quantitative_result=0.00195
